- experimentalDetails: yeast display, Sf9 membrane polyspecificity reagent, FACS + sequencing; frameworks hold sequencing errors
parameter: polyreactivity (PSR sort gate)

# example entries with known answers
seqText: QVQLVESGGGLVQAGGSLRLSCAASGFTFGGYAMGWYRQAPGKERELVAAINSIGGTTYYADSVKGRFTISRDNAKNTVYLQMNRLKPEDTAVYYCAAGFYGYARHTWYNYWGQGTQVTVSS
observed: high polyreactivity
//
seqText: QVQLVESRGGLVQAGGSLRLSCAASGSIFYSNFMGWYRPAPGKERELVARITDAGSTNYADSVKGRFTISRDNAKNTVYLQMNSQKPEDTAVYYCNARLVIYTYDYWGQGTQVTVSS
observed: low polyreactivity
//
seqText: QVQLVESGGGLVQAGGSLRLSCAASGSIFVWNAMGWYRQAPGKERELVAAITNIGGRTYYADSVKGRFTISRDNAKNTFYLQMNSLKPEDTAVYYCNVVVKGAWDYYPYDYWGQGTQVTVSS
observed: high polyreactivity
//
seqText: QVQLVESGGGLVQAGGSLRLSCAATGITFEYNAMGWYRQAPGKERELVAAISLSSGSTYYADSVKGRFTISRDNAKNTVYLQMNSLKPEDTAVYYCNADTIIYEGGYWGQGTQVTVSS
observed: low polyreactivity
//
seqText: QVQLVESGGGLVQAGGSLRLSCASSGSIFGAYAMGWYRQAPGKERELVAAITSVGSTYYADSVKGRFTISRDNAKNTVYVQMNSLIPEDTAVYYCAKRQWRPTYRYGYWGQGTQVTVSS
observed: low polyreactivity

Short answer for QVQLVESGGGLVQAGGSLRLSCAASGIHFRSNAMGWYRQAPGKERELVAAISGRGGRTYYADSVKGRFTISRDNAKNTVYLQMNSLKPEDTAVYYCARESYLGATYPKAYGPYYYWGQGTQVTVSS : polyreactivity (PSR sort gate) was high polyreactivity

The measured polyreactivity (PSR sort gate) associated with QVQLVESGGGIVQAGGSLRLSCAASGPIFGSYALRWARQAPGKERELVAAITRSGGSTYYADSVKGRFTISRDNAKNTVYLQMNILKPEDTAVYYCAAYFSFSGSAKFGYWGQGTQVTVSS reads high polyreactivity

The reported polyreactivity (PSR sort gate) of the sequence QVQLVESGGGLVQAGGSLRLSCAASGRIFGRNAMAWYRQAPGKERELVAAISTSGGTYYADSVKGRFTISRDNAKNTVYLQMISLKPEDTAVYYCNDRGRTQQRWVDYWGQRTQVTVSS was high polyreactivity

According to the records, this sequence QVQLVESGGGLVQAGGSLRLSCAASGGIFYFYAMGWYRQAPGKERELVAVITWSGGRTRYADSVKGRFTISRDNAKNTVYLQMNSLKPEDTAVYYCATYGVNPPGVEEYNYWGQGTQVTVSS displays polyreactivity (PSR sort gate) of high polyreactivity

// field: polyreactivity (PSR sort gate); key: QVQLVESGGGLVQAGGSLRLSCASSGRIFLTNAMGWYRQAPGKERELVAAITSGGSTYYADSVKGRFTISRDNAKNTVFLQMNSLKPEDTAVYYCIADTDRYWPYEYDYWGQGTQVTVSS ; value = low polyreactivity

response.value for QVQLVESVVGLDQAGGSHRLSCAASGSIFATYAMGWYRHAPGKERELVAAITTRGGSTYYADSVKGRFTISRDNAKNTVYLLMYSLKPEDTAVYFCNALRWWSYGLNYCGQGTQVTVSS (field: polyreactivity (PSR sort gate)) = high polyreactivity

get_value(item= QVQLVDSGGGLVQAGGSLRLSCAASGSIFYPYAMGWYRQAPGKEREFVAGITTRGGSTYYADSVKGRFTISRDNAKNTVYLQMNSLKPEDTAVYYCAAYSSVWPNFGYWGQGTQVTVSS , readout=polyreactivity (PSR sort gate)) returns high polyreactivity

GET /value?item= QVQLVESGGGLVQAGGSLRLSCAASGRTFKWNPMGWYRQAPGKERELVAAITRSDGRTFYADSVKGRFTISRDNAKNTVYLQMNSLKPEDSAVYYCNALGYRNSVIYSGFDYWGQGTQVTVSS &field=polyreactivity (PSR sort gate) returns low polyreactivity

Just so you know, measured polyreactivity (PSR sort gate) for QVQLVESGGGLVQAGGSLRLSCAASGRTFYYNAMGWYRQAHGKERQLVADINWSGVRTYYADSVKGRFTISRDNAKNTVYLQMNSLKPEDTAVYYCAARVGPYSLAVDGFKHGYWGQGTQVTVSS came out at low polyreactivity

Reported polyreactivity (PSR sort gate) ( QVQLVQSGGGLFQAGGSLRLSCAASGRTFEPNAMGWYRQAPGKERQLVAAITNGGSTSYADSVKGRFTISRDNAKNSVYLQMNSLKPEDTAVYYFAGDLGRNLLHTYYYWGQGTQVTVSS ) = low polyreactivity
